target: β adrenergic receptors (β2) (Canis lupus familiaris, UniProt P54833); construct: The dog is anaesthetized using sodium pentobarbital; from tissue; host or cells: whole anaesthetized dog (vasculature); test: Antagonism of the effects of isoprenaline, hypotension (β2), anaesthetized dog, IV; assay type: in vivo; details: IV, 50% inhibition of isoprenaline hypotension, read-out: ID50 ISOPRENALINE β2
Sequence (P54833 whole entry): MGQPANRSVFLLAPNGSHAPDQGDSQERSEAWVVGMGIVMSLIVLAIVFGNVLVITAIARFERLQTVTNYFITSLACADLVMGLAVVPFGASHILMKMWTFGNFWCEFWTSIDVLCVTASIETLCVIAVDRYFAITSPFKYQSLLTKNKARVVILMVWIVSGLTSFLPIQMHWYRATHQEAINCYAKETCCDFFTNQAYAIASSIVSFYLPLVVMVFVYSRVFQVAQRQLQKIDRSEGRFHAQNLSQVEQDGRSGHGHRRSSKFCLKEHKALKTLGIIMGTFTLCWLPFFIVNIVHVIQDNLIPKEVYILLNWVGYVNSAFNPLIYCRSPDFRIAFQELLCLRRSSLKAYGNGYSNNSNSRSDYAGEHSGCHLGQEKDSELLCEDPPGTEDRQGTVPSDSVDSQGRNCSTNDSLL
readout_type: ED50

compound	ED50
Cc1ccccc1OC[C@H](O)CN[C@@H](CO)Cc1c[nH]c2ccccc12 [compound 7902]	> 3 mg/kg
Cc1ccccc1OC[C@@H](O)CN[C@H](CO)Cc1c[nH]c2ccccc12 [compound 7898]	0.3 to 1 mg/kg
Cc1ccccc1OCC(O)CNC(C)(C)Cc1c[nH]c2ccccc12 (stereo not drawn) [compound 7854]	0.02 to 0.1 mg/kg
NC(=O)Cc1ccc(OCC(O)CNCCc2c[nH]c3ccccc23)cc1 (stereo not drawn) [compound 7748]	> 3 mg/kg
Cc1cccc(OCC(O)CNC(C)Cc2c[nH]c3ccccc23)c1 (stereo not drawn) [compound 7782]	≥ 3 mg/kg

Alright, here's another compound for you.
Please report the recorded ED50 for Cc1ccccc1OCC(O)CNC(CO)Cc1c[nH]c2ccccc12 (racemic) [compound 7906] .
1 mg/kg

* * *

This section presents compounds with their documented EC50 values.
Biological target: β2 receptors (Rattus norvegicus, UniProt P10608)
Construct: lungs of rats (β2 receptors); from tissue; host or cells: rat lung plasma membranes
Sequence (P10608 whole entry): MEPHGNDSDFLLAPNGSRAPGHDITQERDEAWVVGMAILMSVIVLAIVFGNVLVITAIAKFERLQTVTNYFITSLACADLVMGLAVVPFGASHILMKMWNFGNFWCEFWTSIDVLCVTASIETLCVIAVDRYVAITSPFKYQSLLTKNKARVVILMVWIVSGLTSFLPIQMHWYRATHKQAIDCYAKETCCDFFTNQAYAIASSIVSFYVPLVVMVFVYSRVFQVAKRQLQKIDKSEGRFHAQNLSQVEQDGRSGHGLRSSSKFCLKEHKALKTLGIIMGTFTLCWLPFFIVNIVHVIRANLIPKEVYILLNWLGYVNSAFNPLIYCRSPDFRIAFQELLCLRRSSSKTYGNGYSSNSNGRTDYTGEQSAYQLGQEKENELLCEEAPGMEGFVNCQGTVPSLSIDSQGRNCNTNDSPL
Test: Displacement of 3H dihydroalprenolol, plasmic membranes of lungs of rats
Format: binding
Conditions: rat lung membranes; 3H dihydroalprenolol 4×10^-9 M
Protocol: The binding tests are effected on suspensions of plasmic membranes coming from various organs. The suspensions of membranes are placed in incubation with the tritiated ligand and various concentrations of products to be tested. After incubation, each test is filtered on GFB(Whatman) filter, the filters are dried and introduced into counting flasks. The measurement of the radioactivity is assessed by scintillation in a liquid medium. […]
Write it as a number; the unit nM goes unstated.

Please report the recorded EC50 for Cc1ccccc1OCC(O)CNC(C)(C)Cc1c[nH]c2ccccc12 (stereo not drawn) [compound 7854] .
3.7

Please report the recorded EC50 for Cc1ccccc1OC[C@H](O)CN[C@H](CO)Cc1c[nH]c2ccccc12 [compound 7903] .
2000

Please report the recorded EC50 for Cc1ccccc1OC[C@H](O)CN[C@@H](CO)Cc1c[nH]c2ccccc12 [compound 7902] .
3800

Please report the recorded EC50 for CC(Cc1c[nH]c2ccc(Cl)cc12)NCC(O)COc1ccc(CC(N)=O)cc1 (stereo not drawn) [compound 7859] .
1000

Please report the recorded EC50 for Cc1ccccc1OC[C@@H](O)CN[C@H](CO)Cc1c[nH]c2ccccc12 [compound 7898] .
64

Please report the recorded EC50 for Cc1ccccc1OC[C@@H](O)CN[C@@H](CO)Cc1c[nH]c2ccccc12 [compound 7899] .
82

* * *

biological target: α2 receptor (Rattus norvegicus); construct: plasmic membranes of rat brains; from tissue; host or cells: rat brain plasma membranes; experiment: Displacement of 3H clonidine, plasmic membranes of rat brains; type: binding
Sequence (P22909 whole entry): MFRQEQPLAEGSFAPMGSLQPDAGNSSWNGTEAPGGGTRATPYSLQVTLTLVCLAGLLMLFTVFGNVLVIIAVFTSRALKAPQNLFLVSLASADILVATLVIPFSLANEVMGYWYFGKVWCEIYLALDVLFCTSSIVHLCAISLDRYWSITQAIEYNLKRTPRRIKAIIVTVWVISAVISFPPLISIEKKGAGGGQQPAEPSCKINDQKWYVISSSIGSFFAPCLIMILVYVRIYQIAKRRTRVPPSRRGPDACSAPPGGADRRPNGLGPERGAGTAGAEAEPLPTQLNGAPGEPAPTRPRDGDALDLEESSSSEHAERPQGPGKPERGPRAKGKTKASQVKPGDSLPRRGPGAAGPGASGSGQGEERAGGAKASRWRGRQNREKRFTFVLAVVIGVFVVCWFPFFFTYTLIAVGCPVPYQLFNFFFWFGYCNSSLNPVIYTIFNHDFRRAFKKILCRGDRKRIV
readout_type: EC50 (nM)
Write it as a number; the unit nM goes unstated.

compound	target_under_test	endpoint_unit	EC50
CC(Cc1c[nH]c2ccccc12)NCC(O)COc1ccccc1[N+](=O)[O-] (centres unmarked) [compound 7808]	α2 receptor (Rattus norvegicus)	nM	25

Please report the recorded EC50 for CC(Cc1c[nH]c2ccccc12)NCC(O)COc1ccccc1Cl (centres unmarked) [compound 7806] .
12

Please report the recorded EC50 for Cc1ccccc1OCC(O)CNC(C)Cc1c[nH]c2ccccc12 (centres unmarked) [compound 7744] .
20.5

Please report the recorded EC50 for CC(Cc1c[nH]c2ccccc12)NCC(O)COc1cccc2[nH]ccc12 (centres unmarked) [compound 7874] .
20

Please report the recorded EC50 for CC(Cc1c[nH]c2ccc(Cl)cc12)NCC(O)COc1ccc(CC(N)=O)cc1 (centres unmarked) [compound 7859] .
19
